# assayed-system: Human BACE2 (Homo sapiens, UniProt Q9Y5Z0)
# Construct: the soluble part of the human β-Secretase2 (AA1-AA473) was cloned using BACE2(1-473)-(AVT)-Fc-pDEST12.2 mammalian expression vector; AVT linker (C); made in house
# Sequence (Q9Y5Z0 21-473): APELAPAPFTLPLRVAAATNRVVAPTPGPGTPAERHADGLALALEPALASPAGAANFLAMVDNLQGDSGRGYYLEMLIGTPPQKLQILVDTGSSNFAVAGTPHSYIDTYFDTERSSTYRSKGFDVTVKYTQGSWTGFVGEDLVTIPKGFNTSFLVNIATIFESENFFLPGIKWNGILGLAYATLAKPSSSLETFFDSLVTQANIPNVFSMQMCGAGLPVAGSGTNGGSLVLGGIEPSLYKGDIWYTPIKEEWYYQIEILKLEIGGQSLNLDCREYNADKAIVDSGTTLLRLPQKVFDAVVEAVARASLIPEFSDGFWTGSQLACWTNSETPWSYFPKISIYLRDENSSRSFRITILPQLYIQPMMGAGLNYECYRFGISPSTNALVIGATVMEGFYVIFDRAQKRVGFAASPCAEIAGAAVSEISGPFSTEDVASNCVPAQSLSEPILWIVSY
# run-description: TR-FRET assay
# Assay type: biochemical
# condition-details: enzyme […], substrate 100 nM, pH4.5
property-measured: pIC50
Please report pIC50 as the negative decimal logarithm of the molar concentration, giving only the number.

For the compound [2H]C1([2H])OC(N)=N[C@]12c1cc(-c3cncc(Cl)c3)ccc1C[C@]21CC[C@@H](OC)[C@H](C)C1 , what pIC50 is on record?
7.64

---

# System: SH-SY5Y cells
# run-description: sAPPβ release assay
# condition-details: Homo sapiens, SH-SY5Y, read-out: IC50 Cell (sAPPβ release, nM), SH-SY5Y cells, compounds incubated 16-17 h
property-measured: log10 IC50 (log10 of the value in nM)
Quick note: numbers are log10 of IC50, with nM as the unit.

For the molecule [2H]C1([2H])OC(N)=N[C@]12c1cc(-c3cccc(Cl)c3)ccc1C[C@]21CC[C@@H](OC)[C@H](C)C1 , what log10 IC50 is on record?
0.57

For the molecule [2H]C1([2H])OC(N)=N[C@]12c1cc(-c3cncc(C(F)(F)F)c3)ccc1C[C@@]21CC[C@H](OC)[C@@H](C)C1 , what log10 IC50 is on record?
0.41

For the molecule [2H]C1([2H])OC(N)=NC12c1cc(-c3cncc(Cl)c3)ccc1C[C@]21CC[C@@H](OC)CC1 (stereo partly shown) , what log10 IC50 is on record?
0.58

For the molecule [2H]C([2H])([2H])O[C@@H]1CC[C@]2(Cc3ccc(-c4cc(Cl)cnc4F)cc3[C@]23N=C(N)OC3([2H])[2H])C[C@H]1C , what log10 IC50 is on record?
0.45

For the molecule CO[C@H]1CC[C@]2(CC1)Cc1ccc(-c3cncc(C#N)c3)cc1[C@@]21COC(N)=N1 , what log10 IC50 is on record?
0.63

For the molecule CC#Cc1cncc(-c2ccc3c(c2)C2(COC(N)=N2)C(N2CCOCC2)C3)c1 (stereo not shown) , what log10 IC50 is on record?
2.69

For the molecule [2H]C1([2H])OC(N)=N[C@]12c1cc(C#N)ccc1C[C@@]21CC[C@H](OC)[C@@H](C)C1 , what log10 IC50 is on record?
0.85

---

# Test system: SH-SY5Y cells
# run-description: sAPPβ release assay
# condition-details: Homo sapiens, SH-SY5Y, read-out: IC50 Cell (sAPPβ release, nM), SH-SY5Y cells, compounds incubated 16-17 h
property-measured: IC50 (nM)
State just the number; it will be interpreted in nM.

For the compound [2H]C1([2H])OC(N)=NC12c1cc(-c3cncnc3)ccc1C[C@@]21CC[C@H](O)[C@@H](C)C1 (stereo partly shown) [Compound 63] , what IC50 is on record?
266

For the compound [2H]C1([2H])OC(N)=N[C@]12c1cc(-c3cc(C#N)cc(OC)c3)ccc1C[C@@]21CC[C@H](OC)[C@@H](C)C1 [Compound 23] , what IC50 is on record?
1.5

For the compound CO[C@H]1CC[C@]2(CC1)Cc1ccc(-c3cccnn3)cc1C21COC(N)=N1 (stereo partly shown) [Compound 59] , what IC50 is on record?
128

For the compound [2H]C([2H])([2H])O[C@H]1CC[C@@]2(Cc3ccc(-c4cnccn4)cc3[C@]23N=C(N)OC3([2H])[2H])C[C@@H]1C [Compound 72] , what IC50 is on record?
3.6
